# Test system: Ps. aeruginosa 765
# test: MIC, Agar (Mueller Hinton) Dilution Method
# Format: cell-based
# details: Pseudomonas aeruginosa, Gram Negative
Counter-ions that a name gives are not always drawn.
So I've got a bunch of compounds here, and I need their MIC values.
Reply numerically in µg/mL, unit not repeated.

Specify measured MIC for N#CCC(=O)N[C@@H]1C(=O)N2C(C(=O)O)=C(COC(=O)N[C@@H]3CCN(c4c(F)cc5c(=O)c(C(=O)O)cn(C6CC6)c5c4F)C3)CS[C@H]12 [Formula Ibb, monosodium salt] .
2

Specify measured MIC for N#CCC(=O)N[C@@H]1C(=O)N2C(C(=O)O)=C(COC(=O)N[C@H]3CCN(c4c(F)cc5c(=O)c(C(=O)O)cn(C6CC6)c5c4F)C3)CS[C@H]12 [Formula Iba, monosodium salt] .
0.5

Specify measured MIC for N#CCC(=O)N[C@@H]1C(=O)N2C(C(=O)O)=C(COC(=O)NC3CCN(c4c(F)cc5c(=O)c(C(=O)O)cn(C6CC6)c5c4F)C3)CS[C@H]12 (stereo partly shown) [Formula Ib, monosodium salt] .
1

Specify measured MIC for O=C(Cc1cccs1)N[C@@H]1C(=O)N2C(C(=O)O)=C(COC(=O)N3CCN(c4c(F)cc5c(=O)c(C(=O)O)cn(C6CC6)c5c4F)CC3)CS[C@H]12 .
2
